src = paper PMC10707934

# Test system: SiHa cells
# assay-name: MTT anti-proliferation assay, SiHa
# Type: cell-based, human
# measurement-parameters: 48 h, mean ± SD
reported-property: pIC50
By convention, pIC50 is the negative base-10 log of a molar concentration.

Can you look up the measured pIC50 of N.N.[Cl][Pt][Cl] [Cisplatin, cisplatin, reference compound] for me?
4.68

====

# Test system: HeLa/DDP cells
# assay-name: MTT anti-cisplatin-resistant cervical cancer activity, HeLa/DDP
# Format: cell-based, human
# measurement-parameters: HeLa/DDP versus parental HeLa, 48 h
reported-property: resistance index (RI)
// print number alone

Solved cases below.
Request: resistance index (RI), test system HeLa/DDP cells, entry COc1cccc2c1C(=O)c1c(O)c3c(c(O)c1C2=O)C[C@@](O)(C(=O)CO)C[C@@H]3O[C@H]1C[C@H](N)[C@H](O)[C@H](C)O1 [Doxorubicin]
3.68

Request: resistance index (RI), test system HeLa/DDP cells, entry CC(=O)O[C@H]1C(=O)[C@@]2(C)[C@H]([C@H](OC(=O)c3ccccc3)[C@]3(O)C[C@H](OC(=O)[C@H](O)[C@@H](NC(=O)c4ccccc4)c4ccccc4)C(C)=C1C3(C)C)[C@]1(OC(C)=O)CO[C@@H]1C[C@@H]2O [Paclitaxel, paclitaxel]
5.66

Request: resistance index (RI), test system HeLa/DDP cells, entry N.N.[Cl][Pt][Cl] [Cisplatin, cisplatin, reference compound]
7.90

Request: resistance index (RI), test system HeLa/DDP cells, entry COc1ccc(/C=C(\C)C(=O)c2ccc(Cl)c(Cl)c2)cc1OC [Compound 3k]
1.07

Then there is this compound:
Request: resistance index (RI), test system HeLa/DDP cells, entry O=C(/C=C/c1ccccc1)c1ccccc1 [Chalcone, (E)-chalcone]
1.31

====

# System: C33A cells
# assay-name: MTT anti-proliferation assay, C33A
# Assay type: cell-based, human
# measurement-parameters: Homo sapiens, C-33-A, 48 h, mean ± SD
reported-property: IC50 (µM)
Write the number in µM without appending the unit.

Solved cases below.
Can you look up the measured IC50 of `C/C(=C\c1ccc(N(C)C)cc1)C(=O)c1ccc(Cl)c(Cl)c1` for me?
23.4

Can you look up the measured IC50 of O=C(/C=C/c1ccccc1)c1ccccc1 [Chalcone, (E)-chalcone] for me?
37.5

Can you look up the measured IC50 of `COc1ccc(/C=C(\C)C(=O)c2ccc(Cl)c(Cl)c2)c(OC)c1OC` for me?
33.9

Can you look up the measured IC50 of `COc1ccc(/C=C(\C)C(=O)c2ccc(Cl)c(Cl)c2)c(OC)c1` for me?
23.7

Can you look up the measured IC50 of `COc1ccc(OC)c(/C=C(\C)C(=O)c2ccc(Cl)c(Cl)c2)c1` for me?
28.5

Can you look up the measured IC50 of `COc1cccc(OC)c1/C=C(\C)C(=O)c1ccc(Cl)c(Cl)c1` for me?
44.8

Others:
Can you look up the measured IC50 of `COc1ccc(/C=C(\C)C(=O)c2ccc(Cl)c(Cl)c2)cc1OC` for me?
12.1

Can you look up the measured IC50 of `COc1cc(OC)c(/C=C(\C)C(=O)c2ccc(Cl)c(Cl)c2)c(OC)c1` for me?
63.7

Can you look up the measured IC50 of `COc1cc(/C=C(\C)C(=O)c2ccc(Cl)c(Cl)c2)cc(OC)c1OC` for me?
57

Can you look up the measured IC50 of `COc1cccc(/C=C(\C)C(=O)c2ccc(Cl)c(Cl)c2)c1OC` for me?
30.7

Can you look up the measured IC50 of `CCN(CC)c1ccc(/C=C(\C)C(=O)c2ccc(Cl)c(Cl)c2)cc1` for me?
35

Can you look up the measured IC50 of `COc1cc(OC)c(OC)cc1/C=C(\C)C(=O)c1ccc(Cl)c(Cl)c1` for me?
69.9

Can you look up the measured IC50 of `CCN(CC)c1ccc(/C=C(\C)C(=O)c2ccc(Cl)cc2Cl)cc1` for me?
41.4

Can you look up the measured IC50 of `COc1cc(/C=C(\C)C(=O)c2ccc(Cl)c(Cl)c2)cc(OC)c1` for me?
54.4

Can you look up the measured IC50 of `COc1ccc(/C=C(\C)C(=O)c2ccc(Cl)c(Cl)c2)cc1` for me?
35.1

Can you look up the measured IC50 of `COc1ccccc1/C=C(\C)C(=O)c1ccc(Cl)c(Cl)c1` for me?
17.3

====

# System: human cervical epithelial cells H8
# assay-name: MTT toxicity assay, normal cervical epithelial cells H8
# Format: cell-based
# measurement-parameters: 48 h, mean ± SD
# Procedure: All cell types, at a volume of 200 µL per well, were inoculated in 96-well plates at a density of 2.5 × 10^4 cells / mL and cultured for 24 h in an incubator with 5% CO2 at 37 °C. The old culture medium was replaced with 200 µL of fresh medium per well containing positive compounds, at concentrations of 1, 6.25, 12.5, 25, 50, and 100 μM. […] Non-linear regression fitting of the cell growth rate was carried out using SPSS 23.0, and the IC50 of the compound was calculated. […]
reported-property: IC50 (µM)
Write the number in µM without appending the unit.

Can you look up the measured IC50 of N.N.[Cl][Pt][Cl] [Cisplatin, cisplatin, reference compound] for me?
25.2

====

reported-property: melting point

Can you look up the measured melting point of `COc1ccccc1/C=C(\C)C(=O)c1ccc(Cl)c(Cl)c1` for me?
92.8 to 93.6 °C

Can you look up the measured melting point of `COc1cc(OC)c(/C=C(\C)C(=O)c2ccc(Cl)cc2Cl)c(OC)c1` for me?
104.6 to 105.7 °C

Can you look up the measured melting point of `COc1cc(OC)c(OC)cc1/C=C(\C)C(=O)c1ccc(Cl)c(Cl)c1` for me?
129.6 to 130.5 °C

Can you look up the measured melting point of `COc1cccc(/C=C(\C)C(=O)c2ccc(Cl)c(Cl)c2)c1OC` for me?
99.8 to 100.7 °C

Can you look up the measured melting point of `C/C(=C\c1ccc(N(C)C)cc1)C(=O)c1ccc(Cl)c(Cl)c1` for me?
184 to 184.8 °C

Can you look up the measured melting point of `COc1cc(/C=C(\C)C(=O)c2ccc(Cl)c(Cl)c2)cc(OC)c1` for me?
157 to 158.1 °C

Can you look up the measured melting point of `COc1ccc(/C=C(\C)C(=O)c2ccc(Cl)c(Cl)c2)c(OC)c1` for me?
112.3 to 113.6 °C

Can you look up the measured melting point of `COc1cc(OC)c(/C=C(\C)C(=O)c2ccc(Cl)c(Cl)c2)c(OC)c1` for me?
67.1 to 67.8 °C

Can you look up the measured melting point of `COc1ccc(/C=C(\C)C(=O)c2ccc(Cl)c(Cl)c2)cc1` for me?
70 to 71.1 °C

Can you look up the measured melting point of `COc1ccc(/C=C(\C)C(=O)c2ccc(Cl)c(Cl)c2)c(OC)c1OC` for me?
114.1 to 115.5 °C

Others:
Can you look up the measured melting point of `COc1cccc(OC)c1/C=C(\C)C(=O)c1ccc(Cl)c(Cl)c1` for me?
134.4 to 135.6 °C

Can you look up the measured melting point of `CCN(CC)c1ccc(/C=C(\C)C(=O)c2ccc(Cl)c(Cl)c2)cc1` for me?
186.7 to 190.8 °C

====

# Tested on: C33A cells
# assay-name: MTT anti-proliferation assay, C33A
# Type: cell-based, human
# measurement-parameters: 48 h, mean ± SD
reported-property: IC50 (µM)
Write the number in µM without appending the unit.

Can you look up the measured IC50 of N.N.[Cl][Pt][Cl] [Cisplatin, cisplatin, reference compound] for me?
6.05
